Target: Human TRPC6 (Homo sapiens, UniProt Q9Y210)
Construct: expressed in transfected cells
Sequence (Q9Y210 1-931): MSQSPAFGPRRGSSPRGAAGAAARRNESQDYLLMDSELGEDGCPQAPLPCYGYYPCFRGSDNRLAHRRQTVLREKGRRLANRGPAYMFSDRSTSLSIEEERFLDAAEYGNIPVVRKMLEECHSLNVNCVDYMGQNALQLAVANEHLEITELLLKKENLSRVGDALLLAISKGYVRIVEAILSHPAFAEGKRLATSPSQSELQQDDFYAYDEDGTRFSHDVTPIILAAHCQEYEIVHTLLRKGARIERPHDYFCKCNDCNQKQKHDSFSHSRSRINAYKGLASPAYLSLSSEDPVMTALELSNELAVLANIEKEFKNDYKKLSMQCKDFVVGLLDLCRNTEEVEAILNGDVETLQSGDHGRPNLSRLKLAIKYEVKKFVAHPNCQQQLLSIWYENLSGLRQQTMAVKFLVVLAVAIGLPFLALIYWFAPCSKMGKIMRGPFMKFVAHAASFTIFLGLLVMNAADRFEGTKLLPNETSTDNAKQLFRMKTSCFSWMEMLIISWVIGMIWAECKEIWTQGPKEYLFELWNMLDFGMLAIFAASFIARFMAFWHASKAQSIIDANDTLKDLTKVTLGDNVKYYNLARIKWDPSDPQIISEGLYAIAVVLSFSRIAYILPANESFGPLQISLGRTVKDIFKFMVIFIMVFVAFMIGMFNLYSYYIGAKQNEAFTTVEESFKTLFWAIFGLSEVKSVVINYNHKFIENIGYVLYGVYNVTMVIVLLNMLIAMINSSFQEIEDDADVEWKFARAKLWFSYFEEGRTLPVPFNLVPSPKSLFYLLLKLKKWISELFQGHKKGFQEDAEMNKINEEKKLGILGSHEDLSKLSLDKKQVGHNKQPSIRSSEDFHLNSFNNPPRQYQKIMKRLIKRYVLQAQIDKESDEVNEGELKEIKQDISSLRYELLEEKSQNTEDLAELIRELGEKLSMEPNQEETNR
Assay: Evaluation of TRPC6 channel inhibitory activity (1), FLIPR Calcium 5 Assay Kit, OAG stimulation (Compound Nos. 1-1293)
Format: cell-based
Details: Human TRPC6 stably-expressing cells, OAG 30 μM, FLIPR Calcium 5 Assay Kit; read-out: Inhibitory activity (pIC50 class) (converted)
Item-by-item account of IC50

The cases that follow already have their IC50 on record.
# compound, observed
rows = [
    ("Cc1nc(Oc2cc(C#N)ccc2-c2ccc(CCN)nc2)cc(-c2cccnc2)n1", "> 1000 nM"),
    ("C=C(c1cc(N2CCOCC2)nc(C)n1)c1cc(C#N)ccc1-c1ccc(CCN)cc1", "10 to 1000 nM"),
    ("Cn1nc(C2CC2)cc1Oc1cc(C#N)ccc1-c1cc(C(O)CN)ccn1 (stereo not shown)", "10 to 1000 nM"),
    ("Cc1cc(Oc2cc(C#N)ccc2-c2ccc(OCCN)cn2)n(C)n1", "> 1000 nM"),
    ("Cc1c(C(=O)c2cc(C#N)ccc2-c2ncc(CN)cn2)cnn1CC1CC1", "> 1000 nM"),
    ("Cn1nc(N2CCCCC2)cc1C(=O)c1cc(C#N)ccc1-c1ncc(CN)cn1", "< 10 nM"),
    ("Cc1nc(C(=O)c2cc(C#N)ccc2-c2ncc(CCN)cn2)cc(N2CCOCC2)n1", "10 to 1000 nM"),
    ("Cc1cc(Oc2cc(C#N)ccc2-c2ccc([C@H](O)CN)cn2)cc(N2CCOC[C@H]2C)n1", "< 10 nM"),
    ("Cn1nc(-c2cncnc2)cc1Oc1cc(C#N)ccc1-c1ncc(CN)cn1", "10 to 1000 nM"),
    ("Cc1cccc(-c2cc(Oc3cc(C#N)ccc3-n3cc([C@@H](O)CN)cn3)nc(C)n2)c1", "< 10 nM"),
]

Tell us which IC50 value is on record for Cc1nc(Oc2cc(C#N)ccc2-c2nc(C)c(C(O)CN)s2)cc(-c2ccccc2)n1 (stereo not shown)
10 to 1000 nM

Data provenance: patent US20230167073A1
